Recorded EC50 for the following binders
- STUDY_SYSTEM: SADS HR2 peptide (SADS)
- ASSAY_COMMENT: peptide ELISA
PROPERTY_MEASURED: EC50 (µg/mL)

BINDER	PROPERTY_MEASURED	READOUT_UNIT	VALUE
hr2.012 (antibody, V domains shown) VH: QVQLVQSGAEVKKPGASVKVSCKASGYTFTSHYIHWVRQAPGQGLEWMGIIKPSGGNTIYAQTFQGRVTMTRDTSTSTVYMELRSLTSDDTAVYYCARDQDHGLQRWGQGTLVTVSS VL: QSVLTQPPSVSAPPGQKVTISCSGSSSNIGNNFVSWYQQLPGTAPKLLIYDNIERPSGIPDRFSGSRSGTSATLGITGLQTGDEADYYCGTWDTSLGAWVFGGGTKVTVL	EC50	µg/mL	0.023
hr2.015 (antibody, V domains shown) VH: QVQLVQSGAEVKKPGASVKVSCKASGYTFSSYYVNWVRQAPGQGLEWLGIINRSGSSTIYAQKFQGRVTMTRDTSTSTVYLELSSLRSEDTAVYYCARDQDHALHWGQGTLVTVSS VL: QSVLTQPPSVSAAPGQKVTISCSGSSSNIGSNYVSWYQQLPGTAPKLLIYDNSERPSGIPDRFSGSRSGTSATLGITGLQTGDEADYYCGTWDTSLSAWVFGGGTKLTVL	EC50	µg/mL	0.0731
hr2.013 (antibody, V domains shown) VH: QVQLVQSGAEVKKPGASVKISCKASGYTFTNNYMNWVRQAPGQGLEWMGIIKPSSGSTIYAHKFQGRVTMTRDTSTSTVYMEVRSLTSEDTAVYYCARDQDHGLQNWGQGTLVTVSS VL: QSVLTQPPSVSAASGQKVTIYCSGSSSNIASNFVSWYQQFPGTAPKLLIYDNNQRPSGIPDRFSGSRSGTSATLGITGLQTGDEADYYCGTWDTSLGAWVFGGGTKLTVL	EC50	µg/mL	0.042
